tested on: SK-OV-3 ovarian; experiment: NCI-60 one-dose screen, 48 h; details: 10 µM unless noted
About 83,000 compounds went through this panel and 20% of them were active in at least one assay; those are over-represented in the sample as a whole. Active and inactive are the calls of the source. How the source made its calls: active means growth percent below 10; inactive means the rest.
Please answer using one outcome listed in active, inactive

Examples from the recorded data:
[
  {
    "COMPOUND": "CC[C@H](Nc1ncnc2nc[nH]c12)c1nc2cccc(NCc3ccc(C(=O)NO)o3)c2c(=O)n1-c1ccccc1",
    "GROUP_LABEL": "inactive"
  },
  {
    "COMPOUND": "COc1ccc(-c2cc(C#N)c(NNC(C)=O)[nH]2)cc1",
    "GROUP_LABEL": "inactive"
  },
  {
    "COMPOUND": "COc1cc(-c2nn(-c3ccc(NC(=O)c4ccc(Cl)c(Cl)c4)cc3)cc2-c2ccncc2)ccc1Cl",
    "GROUP_LABEL": "inactive"
  },
  {
    "COMPOUND": "CCCCCCCCCCCCCCCCC(=O)O.CCCCCCCCCCCCCCCCCC(=O)O.CCCCCCCCCCCCCCCCCC(=O)O.CCCCCCCCCCCCCCCCCC(=O)O.CCCCCCCCCCCCCCCCCC(=O)O.CO[CH-]OC12COC1CC(O)C1(C)C(O)C(OC(C)O)C3=C(C)C(OC(=O)C(O)C([NH-])c4ccccc4)CC(O)(C(OC(=O)c4ccccc4)C21)C3(C)C.[Cu+].[Zn].[Zn].[Zn].[Zn].[Zn] (stereo not drawn)",
    "GROUP_LABEL": "inactive"
  },
  {
    "COMPOUND": "O=C(Nc1cccc2[nH]c(C(F)(F)F)nc12)c1ccc(F)cc1",
    "GROUP_LABEL": "inactive"
  },
  {
    "COMPOUND": "CCCNC(=O)Oc1ccc(/C(=C(/C)Cc2ccc(OC)cc2)c2ccc(OCCN3CCCCC3)cc2)cc1",
    "GROUP_LABEL": "inactive"
  },
  {
    "COMPOUND": "COc1cc(CNC(=O)CCCC/C=C/C(C)C)ccc1OCc1nnc(Nc2ccccc2F)o1",
    "GROUP_LABEL": "inactive"
  },
  {
    "COMPOUND": "CCCCCCCCc1ccc(OCCOCC[N+](C)(C)CC)cc1 (tested in a mixture with another compound)",
    "GROUP_LABEL": "inactive"
  },
  {
    "COMPOUND": "O=C(Nc1ccc(-n2cc(-c3ccncc3)c(-c3ccc(Cl)c(O)c3)n2)cc1)c1ccc(Cl)c(C(F)(F)F)c1",
    "GROUP_LABEL": "inactive"
  },
  {
    "COMPOUND": "O=C(Nc1ccc(-n2cc(-c3ccncc3)c(-c3ccc(Cl)c(O)c3)n2)cc1)c1ccc(Cl)c(Cl)c1",
    "GROUP_LABEL": "inactive"
  }
]

Query: Could you check what this test reported for Cc1ccc2c(O)c(O)cc(NC(C)CCCN)c2n1 (stereo not drawn) ?
Response: inactive

Query: Could you kindly confirm the outcome this assay logged for CSCc1ncc(-c2ccc(C(F)(F)F)cc2)c(NC2CCCCCC2)n1 ?
Response: inactive

Query: Given CC(O)c1cc[cH-]c1.[Fe+2].c1cc[cH-]c1 (stereo not drawn) , state the outcome it received in this test.
Response: inactive

Query: Record lookup: outcome of this test for CCC(C)[C@H](NC(=O)Nc1cc(C(F)(F)F)cc(C(F)(F)F)c1)C(=O)N[C@@H](Cc1cn(C)cn1)C(=O)OC (stereo partly drawn) ?
Response: active

Query: Please state the recorded outcome for this compound: CCOC(=O)C(C)C(C)(O)c1ccccc1 (stereo not drawn)
Response: inactive

Query: # fetch the recorded call for OC(c1ccccc1)(c1ccccc1)C(F)(F)F here
Response: inactive

Query: What did the test return for CC(=O)C(CO)C(=O)Nc1ccccc1 (stereo not drawn) ?
Response: inactive

Query: Answer briefly: the call reported for CCCCCSc1ccc2nc(NC(=O)OCC)sc2c1 in this assay.
Response: inactive

Query: Record lookup: outcome of this test for Nc1ccc(S(=O)(=O)Nc2cc(F)cc(F)c2)cc1 ?
Response: inactive

Query: Recorded call for N=C(N)c1ccc(-c2ccc(-c3ccc(Cl)cc3)s2)s1 ?
Response: active
